System: HepG2
Assay: cell viability relative to DMSO; higher = less toxic
Conditions: 72 h; 100 nM
Counter-ions that a name gives are not always drawn.

[
  {
    "compound": "CN[C@H](CC(C)C)C(=O)N[C@H]1C(=O)N[C@@H](CC(N)=O)C(=O)N[C@H]2C(=O)N[C@H]3C(=O)N[C@H](C(=O)N[C@H](C(=O)O)c4cc(O)cc(O)c4-c4cc3ccc4O)[C@H](O)c3ccc(c(Cl)c3)Oc3cc2cc(c3O[C@@H]2O[C@H](CO)[C@@H](O)[C@H](O)[C@H]2O[C@H]2C[C@](C)(N)[C@H](O)[C@H](C)O2)Oc2ccc(cc2Cl)[C@H]1O [VANCOMYCIN HYDROCHLORIDE]",
    "cell viability / %": 105
  },
  {
    "compound": "COc1ccc(NC(=O)c2ccc(-c3ccc(-c4noc(C)n4)cc3C)cc2)cc1N1CCN(C)CC1",
    "cell viability / %": 98.9
  },
  {
    "compound": "Cc1cnc(Nc2ccc(OCCN3CCCC3)cc2)nc1Nc1cccc(S(=O)(=O)NC(C)(C)C)c1",
    "cell viability / %": 101
  }
]

###

Tested on: HepG2
Experiment: relative viability EC50 (midpoint between 100% and the lowest measured viability); higher = less toxic
Details: 72 h
Counter-ions that a name gives are not always drawn.

[
  {
    "compound": "CC(C)(C)C(=O)OCOP(=O)(COCCn1cnc2c(N)ncnc21)OCOC(=O)C(C)(C)C",
    "relative viability EC50": "0.741 µM"
  },
  {
    "compound": "CN[C@H](CC(C)C)C(=O)N[C@H]1C(=O)N[C@@H](CC(N)=O)C(=O)N[C@H]2C(=O)N[C@H]3C(=O)N[C@H](C(=O)N[C@H](C(=O)O)c4cc(O)cc(O)c4-c4cc3ccc4O)[C@H](O)c3ccc(c(Cl)c3)Oc3cc2cc(c3O[C@@H]2O[C@H](CO)[C@@H](O)[C@H](O)[C@H]2O[C@H]2C[C@](C)(N)[C@H](O)[C@H](C)O2)Oc2ccc(cc2Cl)[C@H]1O [VANCOMYCIN HYDROCHLORIDE]",
    "relative viability EC50": "> 10 µM"
  },
  {
    "compound": "Nc1nc(NC2CC2)cc(-c2cccc(Cl)c2Cl)n1",
    "relative viability EC50": "> 10 µM"
  },
  {
    "compound": "COc1ccc(C(=O)N2CCCc3cc(C4=NNC(=O)SC4C)ccc32)cc1OC (configuration not stated)",
    "relative viability EC50": "> 10 µM"
  },
  {
    "compound": "S=P(N1CC1)(N1CC1)N1CC1",
    "relative viability EC50": "> 10 µM"
  },
  {
    "compound": "O=C(NCCCCN1CCN(c2cccc(Cl)c2Cl)CC1)c1ccc2c(c1)Cc1ccccc1-2",
    "relative viability EC50": "> 10 µM"
  },
  {
    "compound": "C[C@H]1[C@H](NC(=O)/C(=N\\OC(C)(C)C(=O)O)c2csc(N)n2)C(=O)N1S(=O)(=O)O",
    "relative viability EC50": "> 10 µM"
  },
  {
    "compound": "COC1CCN(c2cccc(-c3cc(NC(C)=O)nc(-n4nc(C)cc4C)n3)n2)CC1",
    "relative viability EC50": "1.12 µM"
  },
  {
    "compound": "CS(=O)(=O)Oc1ccc2c(NC(N)=O)c(C(=O)c3ccc(Cl)cc3Cl)oc2c1",
    "relative viability EC50": "> 10 µM"
  },
  {
    "compound": "O=C(NCCO)c1cc(C(=O)NCCO)cc(C(=O)NCCO)c1",
    "relative viability EC50": "> 10 µM"
  },
  {
    "compound": "Cc1ccc(O)c([C@H](CCN(C(C)C)C(C)C)c2ccccc2)c1",
    "relative viability EC50": "> 10 µM"
  },
  {
    "compound": "Cc1cc(NC(=O)Nc2ccc(N(C)C)cc2)c2cc(F)cc(F)c2n1",
    "relative viability EC50": "> 10 µM"
  },
  {
    "compound": "O[C@@H]1CCCC[C@H]1N1CCC(c2ccccc2)CC1 (racemic)",
    "relative viability EC50": "> 10 µM"
  },
  {
    "compound": "O=C(O)CCNc1cc(N2CCc3ccccc3CC2)nc(-c2cccnc2)n1",
    "relative viability EC50": "> 10 µM"
  },
  {
    "compound": "C[C@@H](Oc1cc(-n2cnc3ccc(CN4CCN(C)CC4)cc32)sc1C(N)=O)c1ccccc1C(F)(F)F",
    "relative viability EC50": "0.054 µM"
  },
  {
    "compound": "Cc1cc(Nc2nc(N[C@@H](C)c3ccc(F)cc3)c(C#N)cc2F)n[nH]1",
    "relative viability EC50": "0.422 µM"
  },
  {
    "compound": "CCCC[C@@]1(C2CCCC2)Cc2cc(OCCCC(=O)O)c(Cl)c(Cl)c2C1=O",
    "relative viability EC50": "> 10 µM"
  },
  {
    "compound": "CC(C)Nc1nc2cc(Cl)c(Cl)cc2n1[C@H]1O[C@@H](CO)[C@H](O)[C@@H]1O",
    "relative viability EC50": "> 10 µM"
  },
  {
    "compound": "O=[N+]([O-])c1cccc2c(Br)n[nH]c12",
    "relative viability EC50": "> 10 µM"
  },
  {
    "compound": "Cn1cnnc1Sc1c([N+](=O)[O-])ncn1C",
    "relative viability EC50": "> 10 µM"
  },
  {
    "compound": "C=C[C@@]1(C)CC(=O)[C@]2(O)[C@@]3(C)[C@@H](O)CCC(C)(C)[C@@H]3[C@H](OC(=O)CCN(C)C)[C@H](OC(C)=O)[C@@]2(C)O1 [colforsin-daproate]",
    "relative viability EC50": "> 10 µM"
  },
  {
    "compound": "CN1CCN(C(c2ccccc2)c2ccc(Cl)cc2)CC1 (configuration not stated)",
    "relative viability EC50": "> 10 µM"
  }
]

###

Tested on: Vero E6
Assay: relative viability EC50 (midpoint between 100% and the lowest measured viability); higher = less toxic
Conditions: 72 h
List of relative viability EC50 values.

[
  {
    "compound": "Cc1cccc(C(=O)O)c1O [hydroxytoluic-acid]",
    "relative viability EC50": "> 10 µM"
  },
  {
    "compound": "CO[C@@H](C)Cn1c(=O)n(C)c2cnc3ccc(-c4cncc(C(C)(C)O)c4)cc3c21",
    "relative viability EC50": "0.514 µM"
  },
  {
    "compound": "CC(N)Cc1ccc(O)cc1 (stereo not given) [hydroxyamphetamine]",
    "relative viability EC50": "> 10 µM"
  },
  {
    "compound": "COc1cc2ncnc(Oc3cccc(NC(=O)Nc4cc(C(C)(C)C(F)(F)F)on4)c3)c2cc1OC",
    "relative viability EC50": "> 10 µM"
  },
  {
    "compound": "O=C(Oc1cccc2cccnc12)c1ccccc1",
    "relative viability EC50": "> 10 µM"
  },
  {
    "compound": "N#Cc1ccc2[nH]c(O)c(-c3ccc(CN4CCOCC4)cn3)c2c1",
    "relative viability EC50": "> 10 µM"
  },
  {
    "compound": "CC(=O)SC[C@@H](Cc1ccccc1)C(=O)NCC(=O)OCc1ccccc1 (racemic)",
    "relative viability EC50": "> 10 µM"
  },
  {
    "compound": "CN1CCN(C(c2ccccc2)c2ccc(Cl)cc2)CC1 (stereo not given)",
    "relative viability EC50": "> 10 µM"
  },
  {
    "compound": "CN1C(=O)N(c2ccc(C#N)c(C(F)(F)F)c2)C(=O)[C@]1(CO)c1ccccc1 [GLPG0492-R-enantiomer]",
    "relative viability EC50": "> 10 µM"
  },
  {
    "compound": "COc1ccc(NC(=O)c2ccc(-c3ccc(-c4noc(C)n4)cc3C)cc2)cc1N1CCN(C)CC1",
    "relative viability EC50": "2.79 µM"
  },
  {
    "compound": "Cc1ccccc1CN1C(=O)C2=C(CCN(Cc3ccccc3)C2)N2CCN=C12",
    "relative viability EC50": "3.35 µM"
  },
  {
    "compound": "CC(C)=CCC/C(C)=C/CNCCNC1C2CC3CC(C2)CC1C3 (stereo not given)",
    "relative viability EC50": "> 10 µM"
  },
  {
    "compound": "CNCC(O)c1ccc(OC(=O)C(C)(C)C)c(OC(=O)C(C)(C)C)c1 (stereo not given)",
    "relative viability EC50": "> 10 µM"
  },
  {
    "compound": "O=C(O)CCNc1cc(N2CCc3ccccc3CC2)nc(-c2cccnc2)n1",
    "relative viability EC50": "> 10 µM"
  },
  {
    "compound": "COc1ccc(C(=O)CC2(O)C(=O)Nc3c(Cl)ccc(Cl)c32)cc1 (stereo not given)",
    "relative viability EC50": "3.34 µM"
  }
]
